assay: Toxicity liver stage against HepG2, at 10uM; format: cell-based; design: test concentration 10 uM, cell line HepG2-A16-CD81EGFP; conditions: human, HepG2-A16-CD81EGFP cells; read-out: INHIBITION
Recorded cytotoxicity at 10 µM values for a group of compounds are listed next.
Enter the number, and then the unit.

Examples with answers:
>>> result("COc1ccc(C(=O)NCc2ccon2)cc1F")
"0.824%"
>>> result("CC(=O)Nc1cccc(C(=O)Nc2cnc3n2CCCC3)c1")
"4.36%"
>>> result("CCC(CN1CCOCC1)n1cncc1-c1ccc2c(c1)CCN2CC (configuration not stated)")
"14.9%"

Lookup: Which value of cytotoxicity at 10 µM has been reported for CCc1nc2n(n1)CC(NCc1nc(Cc3ccccc3)no1)CC2 (configuration not stated) in the records?
Found: 1.06%

###

test: Toxicity liver stage against HepG2, at 10uM; format: cell-based; parameters: test concentration 10 uM, cell line HepG2-A16-CD81EGFP; conditions: human, HepG2-A16-CD81EGFP cells; read-out: INHIBITION
METRIC: cytotoxicity at 10 µM

Examples with answers:
>>> result("Cc1ccc(N2CC[C@H](O)[C@@H]2Cc2cnn(C)c2)nn1")
"0.434%"
>>> result("Cc1nnc(C(C)N2CCc3[nH]c4ccccc4c3C2)o1 (stereo unspecified)")
"-9.42%"
>>> result("COCC(=O)N1CCC2(COCc3cnc(-c4ccccc4)nc32)C1 (stereo unspecified)")
"2.65%"
>>> result("CN(c1ncnc2sccc12)C1CCCN(c2cccnn2)C1 (stereo unspecified)")
"0.0357%"
>>> result("Cc1nc(C2CCCN(C(=O)CCn3ccccc3=O)C2)no1 (stereo unspecified)")
"-9.35%"
>>> result("CC1(C)CNC(=O)c2nc(CCCN3CCCC3)[nH]c2C1")
"-12.4%"
>>> result("CN(C)CCN1CCO[C@@H]2CCN(C(=O)c3cccn3C)CC[C@H]21")
"7.17%"
>>> result("Cc1cc(NCCNc2cccnc2)nc(N)n1")
"-5.86%"
>>> result("Cc1cccc(CN2CCCC3(CCC(=O)N3CCN(C)C)CC2)n1 (stereo unspecified)")
"-0.891%"
>>> result("CCN(CC)[C@@H]1CN(Cc2nccn2C)[C@@H]2CCCO[C@H]12")
"4.92%"

Please turn your attention to the following entry.
Lookup: Which value of cytotoxicity at 10 µM has been reported for O=C(NCCNS(=O)(=O)c1ccc2c(c1)CCC2)c1ccccc1 in the records?
Found: 9.36%

###

experiment: Toxicity liver stage against HepG2, at 10uM; type: cell-based; set-up: test concentration 10 uM, cell line HepG2-A16-CD81EGFP; settings: human, HepG2-A16-CD81EGFP cells; read-out: INHIBITION
METRIC: cytotoxicity at 10 µM (%)
Return type: number; implicit unit %.

Examples with answers:
>>> numeric_readout("CCN(CC)c1ccc(CNC(=O)c2cnccn2)cn1")
-104
>>> numeric_readout("O=C(CCNC(=O)NC1CC1)NCc1ccccc1")
8.12
>>> numeric_readout("CCN1CCN(c2ccc(F)cc2C(C)NCc2ccncc2)CC1 (centres undefined)")
-1.4
>>> numeric_readout("Cc1n[nH]c2c1C(c1cccnc1)SCC(=O)N2 (centres undefined)")
-7.46

Lookup: Which value of cytotoxicity at 10 µM has been reported for CC(C)NC(=O)C1CCc2nnc(CNC(=O)C3CC3)n21 (centres undefined) in the records?
Found: 4.9

Lookup: Which value of cytotoxicity at 10 µM has been reported for Cc1ccc(C(=O)O)c(N2CC(C)(C)[C@@](C)(O)C2)n1 in the records?
Found: 4.5

Lookup: Which value of cytotoxicity at 10 µM has been reported for O=C(c1ccc[nH]1)N1CCC2(CC1)C(=O)Nc1ccccc12 in the records?
Found: 2.09

Lookup: Which value of cytotoxicity at 10 µM has been reported for Cc1n[nH]cc1C(=O)N1CCCC(n2nnc3cc(F)ccc32)C1 (centres undefined) in the records?
Found: -2.91

Lookup: Which value of cytotoxicity at 10 µM has been reported for Cn1ccnc1CN1CCCN(C(=O)c2ccc(Cl)o2)CC1 in the records?
Found: -7.03

Lookup: Which value of cytotoxicity at 10 µM has been reported for CN1CCN(CCCN(C)S(=O)(=O)CC2CCCCC2)CC1 in the records?
Found: -10.1

Lookup: Which value of cytotoxicity at 10 µM has been reported for Cc1ccc(C(=O)O)cc1S(=O)(=O)Nc1nn(-c2ccccc2)cc1C in the records?
Found: -8.84

Lookup: Which value of cytotoxicity at 10 µM has been reported for CNC(=O)CCN(C)CC1(c2ccc(Br)cc2)CC1 in the records?
Found: -12.5

Lookup: Which value of cytotoxicity at 10 µM has been reported for Cc1cc(CN(C)C(=O)C(c2cccnc2)N2CCOCC2)n[nH]1 (centres undefined) in the records?
Found: -52.7

Lookup: Which value of cytotoxicity at 10 µM has been reported for c1cc(-c2ccc(CN3CCCC4(CCNC4)C3)s2)[nH]n1 (centres undefined) in the records?
Found: -152

Lookup: Which value of cytotoxicity at 10 µM has been reported for Cc1cc(-c2ccc(=O)n(C3CCN(C(=O)C4CC4)CC3)n2)c(C)o1 in the records?
Found: 4.79
